Known koff of a selection of binders
biological target: T1, Human C5 (human, UniProt P01031 19-1676); assay: SPR, mAb captured by anti-hFc, 25C
T1 construct: The natural protein has a beta and an alpha chain; also called complement factor 5; complement component 5
Field format: number, assumed s⁻¹, no unit text.

Example binders with recorded koff:
H4H12168P (antibody, human IgG4, V domains shown) VH: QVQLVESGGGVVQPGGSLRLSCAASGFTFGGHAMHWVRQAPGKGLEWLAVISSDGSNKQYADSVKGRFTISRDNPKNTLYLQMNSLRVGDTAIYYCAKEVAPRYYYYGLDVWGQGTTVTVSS VL: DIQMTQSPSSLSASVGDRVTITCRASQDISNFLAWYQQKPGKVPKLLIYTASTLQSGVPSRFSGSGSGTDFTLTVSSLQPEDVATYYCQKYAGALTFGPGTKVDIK: 4.75e-05
H4H12166P5 (antibody, human IgG4, V domains shown, human IgG4 Fc with S108P hinge mutation) VH: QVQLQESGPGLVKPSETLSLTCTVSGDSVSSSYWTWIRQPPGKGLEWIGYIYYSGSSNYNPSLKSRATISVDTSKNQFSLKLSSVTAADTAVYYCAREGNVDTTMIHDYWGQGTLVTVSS VL: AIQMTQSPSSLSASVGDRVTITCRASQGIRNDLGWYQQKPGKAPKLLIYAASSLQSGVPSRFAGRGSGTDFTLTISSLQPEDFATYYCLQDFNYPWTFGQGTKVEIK: 0.000328
H4H12161P (antibody, human IgG4, V domains shown) VH: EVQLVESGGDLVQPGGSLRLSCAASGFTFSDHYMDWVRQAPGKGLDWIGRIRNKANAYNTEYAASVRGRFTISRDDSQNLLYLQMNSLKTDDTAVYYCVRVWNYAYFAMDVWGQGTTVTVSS VL: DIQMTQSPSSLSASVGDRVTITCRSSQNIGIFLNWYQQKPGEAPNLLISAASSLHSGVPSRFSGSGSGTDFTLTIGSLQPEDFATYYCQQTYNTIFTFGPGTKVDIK: 4.37e-05

Entry H4H11686N (antibody, human IgG4, V domains shown, also called H2M11686N) VH: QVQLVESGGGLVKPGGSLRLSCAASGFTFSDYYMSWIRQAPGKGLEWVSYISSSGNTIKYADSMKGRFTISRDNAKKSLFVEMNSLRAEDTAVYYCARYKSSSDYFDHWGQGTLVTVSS VL: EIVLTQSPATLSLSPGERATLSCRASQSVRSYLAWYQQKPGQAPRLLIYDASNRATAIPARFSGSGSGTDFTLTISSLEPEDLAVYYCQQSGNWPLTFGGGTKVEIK — recorded koff = 3.31e-05

Entry H4H12166P7 (antibody, human IgG4, V domains shown, human IgG4 Fc with S108P hinge mutation) VH: QVQLQESGPGLVKPSETLSLTCTVSGDSVSSSYWTWIRQPPGKGLEWIGYIYYSGSSNYNPSLKSRATISVDTSKNQFSLKLSSVTAADTAVYYCAREHNVDTTMIFDYWGQGTLVTVSS VL: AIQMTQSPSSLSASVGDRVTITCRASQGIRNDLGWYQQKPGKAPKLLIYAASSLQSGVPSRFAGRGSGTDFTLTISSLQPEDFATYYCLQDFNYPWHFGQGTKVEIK — recorded koff = 0.00101
